So I've got a bunch of compounds here, and I need their IC50 values.
STUDY_SYSTEM: KRas^G12R (Homo sapiens, UniProt P01116, G12R)
Construct: […]; biotin (biotinylated); purchased Accelegan Inc
Sequence (P01116 1-169 isoform P01116-2 G12R): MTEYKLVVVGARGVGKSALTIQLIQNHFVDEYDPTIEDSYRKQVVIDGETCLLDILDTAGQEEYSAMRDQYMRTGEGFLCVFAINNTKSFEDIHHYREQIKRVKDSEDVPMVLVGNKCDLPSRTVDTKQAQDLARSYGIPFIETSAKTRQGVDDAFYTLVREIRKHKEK
TEST_DESCRIPTION: KRas binding assay (TR-FRET displacement of Cy5 labelled tracer)
Answers are plain numbers, in µM.

Examples with their reported IC50 follow.
{"COMPOUND": "C[C@@]1(O)CCCN(c2nc(OC[C@@]34CCCN3C[C@H](F)C4)nc3c2CCN(c2cc(O)cc4ccc(F)c(Cl)c24)C3)C1", "IC50 / µM": 0.003}
{"COMPOUND": "CN1CCC[C@H]1COc1nc2c(c(N3C[C@@H]4C(=O)NC(=O)[C@@H]4C3)n1)CCN(c1cccc3cccc(Cl)c13)C2", "IC50 / µM": 1.62}
{"COMPOUND": "CCc1cccc2cccc(N3CCc4c(nc(OCC56CCCN5CCC6)nc4N4CCCC(O)(C(F)(F)F)C4)C3)c12 (stereo not drawn)", "IC50 / µM": 0.788}
{"COMPOUND": "CCc1cccc2cccc(N3CCc4c(nc(OCC56CCCN5CCC6)nc4N4CC[C@H]5C(=O)NC[C@H]5C4)C3)c12", "IC50 / µM": 1.64}
{"COMPOUND": "CCc1c(F)ccc2cc(O)cc(N3CCc4c(nc(OCC5(CN(C)C)CC5)nc4N4CCCC5(C4)NC(=O)NC5=O)C3)c12 (stereo not drawn)", "IC50 / µM": 0.004}

Each compound below has a reported value. Please supply its IC50.
1. CCc1cccc2cccc(N3CCc4c(nc(OCC56CCCN5CCC6)nc4N4CCCC(c5nc(C)c(C)[nH]5)C4)C3)c12 (stereo not drawn)
2. CCc1c(F)ccc2cc(O)cc(N3CCc4c(nc(OC[C@@]56CCCN5C[C@H](F)C6)nc4N4C[C@H]5CC[C@H](O)[C@H]5C4)C3)c12
3. CCc1cccc2cccc(N3CCc4c(nc(OCC56CCCN5CCC6)nc4N4CCCC(O)C4)C3)c12 (stereo not drawn)
4. CCc1cccc2cccc(N3CCc4c(nc(OCC56CCCN5CCC6)nc4N4CCCC(c5ccn(C)n5)C4)C3)c12 (stereo not drawn)
5. CCc1cccc2cccc(N3CCc4c(nc(OCC56CCCN5CCC6)nc4N4CCCC(O)(C(F)F)C4)C3)c12 (stereo not drawn)

1.32
0.118
0.198
0.339
0.308

The following compounds each have a reported value; give each one's IC50.
1. CCc1cccc2cccc(N3CCc4c(nc(OCC56CCCN5CCC6)nc4N4CCCC(c5c[nH]cn5)C4)C3)c12 (stereo not drawn)
2. CCc1cccc2cccc(N3CCc4c(nc(OCC56CCCN5CCC6)nc4N4CCCC(CO)CC4)C3)c12 (stereo not drawn)
3. CCc1c(F)ccc2cc(O)cc(N3CCc4c(nc(OC[C@@]56CCCN5C[C@H](F)C6)nc4N4CCCc5nn(C(=O)NC(C)C)cc5C4)C3)c12

0.462
0.638
0.02

Hi there! I need IC50 for each item below, if you can.
1. CN1CCC[C@H]1COc1nc2c(c(N3CCCC4(CC(=O)N4)C3)n1)CCN(c1cccc3cccc(Cl)c13)C2 (stereo partly drawn)
2. CCc1cccc2cccc(N3CCc4c(nc(OCC56CCCN5CCC6)nc4Nc4cnn(CC(N)=O)c4)C3)c12

0.553
1.41
